test system: HBV; assay: HBV inhibition assay: anti-HBV activity in vitro in HepG2.2.15 cells (extracellular HBV DNA by qPCR); type: cell-based; conditions: Hepatitis B virus, 120 h, five days after compound treatment, extracellular HBV DNA in culture supernatant by qPCR, concentration at which HBV replication is inhibited by 50%
What EC50 was measured for each of the following?

compound: Cc1cnn(-c2cnn3c2CN(C(=O)Nc2ccc(F)c(Cl)c2)C(C)C3)c1 (stereo not shown)
experimental_endpoint: EC50
measured_result: 0.03 µM

compound: C[C@H]1[C@H](C)n2ncc(N3CCOCC3=O)c2CN1C(=O)Nc1cc(F)c(F)c(F)c1
experimental_endpoint: EC50
measured_result: 0.04 µM

compound: C[C@H]1Cn2ncc(N3CC(c4ccncc4)OC3=O)c2CN1C(=O)Nc1cc(F)c(F)c(F)c1 (stereo partly shown)
experimental_endpoint: EC50
measured_result: 0.012 µM

Okay, here is my list. What is EC50 for each of these?
1. C[C@H]1Cn2ncc(N3CC(C)(C(=O)N4CCC(F)(F)CC4)CC3=O)c2CN1C(=O)Nc1cc(F)c(F)c(F)c1 (stereo partly shown)
2. C[C@H]1[C@H](C)n2ncc(N3CCCC3=O)c2CN1C(=O)Nc1cc(F)c(F)c(F)c1

1. 0.088 µM
2. 0.045 µM

====

system: HBV; experiment: HBV inhibition assay: anti-HBV activity in vitro in HepG2.2.15 cells (extracellular HBV DNA by qPCR); assay type: cell-based; conditions: Hepatitis B virus, 120 h, five days after compound treatment, extracellular HBV DNA in culture supernatant by qPCR, concentration at which HBV replication is inhibited by 50%
experimental_endpoint: EC50 (nM)
Numbers only, in nM.

Solved entries (count: 5):
molecule: CC1CCOC(=O)N1c1cnn2c1CN(C(=O)Nc1cc(F)c(F)c(F)c1)[C@@H](C)C2 (some centres unmarked)
unit_of_measurement: nM
measured_result: 29

molecule: C[C@@H]1[C@@H](Oc2ncccn2)[C@H](O)C(=O)N1c1cnn2c1CN(C(=O)Nc1cc(F)c(F)c(F)c1)[C@@H](C)C2
unit_of_measurement: nM
measured_result: 16

molecule: CC1CN(c2cnn3c2CN(C(=O)Nc2ccc(F)c(Cl)c2)[C@@H](C)C3)C(=O)N1 (some centres unmarked)
unit_of_measurement: nM
measured_result: 46

molecule: Cc1cc(NC(=O)N2CCn3ncc(-c4ccc(F)cc4)c3C2)ccc1F
unit_of_measurement: nM
measured_result: 32

molecule: C[C@H]1Cn2ncc(N3CC(C)(C(=O)N4CCC(F)(F)C4)CC3=O)c2CN1C(=O)Nc1cc(F)c(F)c(F)c1 (some centres unmarked)
unit_of_measurement: nM
measured_result: 94

Okay, here is my list. What is EC50 for each of these?
1. CC1CCC(=O)N(c2cnn3c2CN(C(=O)Nc2cc(F)c(F)c(F)c2)[C@@H](C)C3)C1 (some centres unmarked)
2. O=C(Nc1ccc(F)c(Cl)c1)N1CCn2ncc(C3CCCC3)c2C1
3. CC1Cn2ncc(-c3ccc(F)cn3)c2CN1C(=O)Nc1ccc(F)c(C2CC2)c1 (centres unmarked)

[43, 29, 83]

====

What EC50 was measured for each of the following?
test system: HBV; assay: HBV inhibition assay: anti-HBV activity in vitro in HepG2.2.15 cells (extracellular HBV DNA by qPCR); type: cell-based; conditions: Hepatitis B virus, 120 h, five days after compound treatment, extracellular HBV DNA in culture supernatant by qPCR, concentration at which HBV replication is inhibited by 50%
One number for each entry, in nM.

Solved entries (count: 4):
compound: C[C@H]1Cn2ncc(N3CC(c4ccccc4)OC3=O)c2CN1C(=O)Nc1cc(F)c(F)c(F)c1 (stereo partly shown)
EC50 / nM: 7

compound: C[C@H]1Cn2ncc(N3CC(CO)CC3=O)c2CN1C(=O)Nc1ccc(F)c(Cl)c1 (stereo partly shown)
EC50 / nM: 104

compound: CC1Cn2ncc(-n3cc(F)cn3)c2CN1C(=O)Nc1ccc(F)c(Cl)c1 (stereo not shown)
EC50 / nM: 13

compound: O=C(Nc1ccc(F)c(Cl)c1)N1CCn2ncc(C3CCCCC3)c2C1
EC50 / nM: 45

Okay, here is my list. What is EC50 for each of these?
1. O=C(Nc1cccc(Cl)c1)N1CCn2ncc(-c3ccccc3F)c2C1
2. CC1CCN(c2cnn3c2CN(C(=O)Nc2ccc(F)c(Cl)c2)[C@@H](C)C3)C1=O (stereo partly shown)
3. CCC1CC(=O)N(c2cnn3c2CN(C(=O)Nc2ccc(F)c(Cl)c2)[C@@H](C)C3)C1 (stereo partly shown)
4. C[C@H]1Cn2ncc(N3C(=O)Cc4ccccc43)c2CN1C(=O)Nc1cc(F)c(F)c(F)c1
5. O=C(Nc1cc(F)c(F)c(F)c1)N1CCn2ncc(-c3ccc(F)cc3F)c2C1

72
68
20
14
68

====

Test system: HBV
Experiment: HBV inhibition assay: anti-HBV activity in vitro in HepG2.2.15 cells (extracellular HBV DNA by qPCR)
Format: cell-based
Conditions: Hepatitis B virus, 120 h, five days after compound treatment, extracellular HBV DNA in culture supernatant by qPCR, concentration at which HBV replication is inhibited by 50%
Text: Example 441: HBV Inhibition Assays Cell Line and Culture Conditions: HepG2.2.15 is a stably-transfected cell line containing the HBV genome. […] For quantitative PCR detection of extracellular HBV DNA, culture supernatant was processed by Proteinase K digestion. After heat inactivation of the enzyme, the samples were subjected to HBV DNA quantification by qPCR. […]
Field: label. Allowed values: T (EC50 < 30 nM) or F (EC50 >= 30 nM).

Example entries and their recorded answers appear below.
molecule: O=C(Nc1ccc(F)c(C2CC2)c1)N1CCn2ncc(-c3ccc(F)cc3F)c2C1
assay_system: HBV
assigned_category: F

molecule: Cc1cc(-c2cnn3c2CN(C(=O)Nc2ccc(F)c(Cl)c2)CC3)ncc1F
assay_system: HBV
assigned_category: F

Strictly below 30 nM in EC50? CC1COC(=O)N(c2cnn3c2CN(C(=O)Nc2cc(F)c(F)c(F)c2)[C@@H](C)C3)C1 (stereo partly drawn) T

Strictly below 30 nM in EC50? C[C@H]1Cn2ncc(N3CC(c4ccccn4)CC3=O)c2CN1C(=O)Nc1cc(F)c(F)c(F)c1 (stereo partly drawn) T

Strictly below 30 nM in EC50? C[C@H]1Cn2ncc(N3C[C@H](C#N)CC3=O)c2CN1C(=O)Nc1cc(F)c(F)c(F)c1 F

Strictly below 30 nM in EC50? C[C@H]1Cn2ncc(N3CCCC3=O)c2CN1C(=O)Nc1cc(F)c(F)c(F)c1 F

Strictly below 30 nM in EC50? C[C@H]1Cn2ncc(N3CC(C)(C)OCC3=O)c2CN1C(=O)Nc1ccc(F)c(Cl)c1 T

Strictly below 30 nM in EC50? CC1Cn2ncc(-c3ccc(F)cc3F)c2CN1C(=O)Nc1ccc(F)c(Cl)c1 (stereo not drawn) T

====

system: HBV; experiment: HBV inhibition assay: anti-HBV activity in vitro in HepG2.2.15 cells (extracellular HBV DNA by qPCR); assay type: cell-based; details: Hepatitis B virus, 120 h, five days after compound treatment, extracellular HBV DNA in culture supernatant by qPCR, concentration at which HBV replication is inhibited by 50%
Field: label. Allowed values: YES (EC50 < 0.04 µM) or NO (EC50 >= 0.04 µM).

Example entries and their recorded answers appear below.
compound: COC(=O)N1CC2(CC(=O)N(c3cnn4c3CN(C(=O)Nc3cc(F)c(F)c(F)c3)[C@@H](C)C4)C2)C1
assay_system: HBV
assigned_category: NO

compound: C[C@H]1Cn2ncc(N3C[C@@H](Oc4ncc(F)cn4)CC3=O)c2CN1C(=O)Nc1cc(F)c(F)c(F)c1
assay_system: HBV
assigned_category: YES

compound: C[C@H]1Cn2ncc(N3CN(S(C)(=O)=O)CC3=O)c2CN1C(=O)Nc1cc(F)c(F)c(F)c1
assay_system: HBV
assigned_category: NO

compound: C[C@H]1Cn2ncc(N3CC(c4cccnc4)CC3=O)c2CN1C(=O)Nc1cc(F)c(F)c(F)c1 (stereo partly shown)
assay_system: HBV
assigned_category: YES

compound: CC1Cn2ncc(N3CCOC3=O)c2CN1C(=O)Nc1ccc(F)c(Cl)c1 (stereo not shown)
assay_system: HBV
assigned_category: NO

Strictly below 0.04 µM in EC50? C[C@H]1Cn2ncc(N3CC(c4ccccn4)OC3=O)c2CN1C(=O)Nc1cc(F)c(F)c(F)c1 (stereo partly shown) YES

Strictly below 0.04 µM in EC50? C[C@H]1Cn2ncc(N3CC(C)(c4nnco4)CC3=O)c2CN1C(=O)Nc1cc(F)c(F)c(F)c1 (stereo partly shown) NO

====

test system: HBV; assay: HBV inhibition assay: anti-HBV activity in vitro in HepG2.2.15 cells (extracellular HBV DNA by qPCR); type: cell-based; conditions: Hepatitis B virus, 120 h, five days after compound treatment, extracellular HBV DNA in culture supernatant by qPCR, concentration at which HBV replication is inhibited by 50%
Each record's EC50 is compared with bottom range: < 20 nM; center range: ≥ 20 nM and < 50 nM; top range: ≥ 50 nM to give its class.

Example entries and their recorded answers appear below.
compound: C[C@H]1Cn2ncc(N3CC(C(=O)N4CCOC(C)(C)C4)CC3=O)c2CN1C(=O)Nc1cc(F)c(F)c(F)c1 (stereo partly shown)
assigned_category: top range
//
compound: Cc1noc(C2(C)CC(=O)N(c3cnn4c3CN(C(=O)Nc3cc(F)c(F)c(F)c3)[C@@H](C)C4)C2)n1 (stereo partly shown)
assigned_category: bottom range
//
compound: CC1CCN(c2cnn3c2CN(C(=O)Nc2cc(F)c(F)c(F)c2)[C@@H](C)C3)C(=O)O1 (stereo partly shown)
assigned_category: top range
//
compound: C[C@H]1Cn2ncc(N3CC(c4nnc(C(F)(F)F)o4)CC3=O)c2CN1C(=O)Nc1cc(F)c(F)c(F)c1 (stereo partly shown)
assigned_category: center range
//
compound: C[C@H]1Cn2ncc(N3CC(C)(C)CC3=O)c2CN1C(=O)Nc1ccc(F)c(Cl)c1
assigned_category: bottom range
//
compound: CCOC(=O)N1CC2(CC(=O)N(c3cnn4c3CN(C(=O)Nc3cc(F)c(F)c(F)c3)[C@@H](C)C4)C2)C1
assigned_category: center range

Input C#Cc1cc(NC(=O)N2CCn3ncc(-c4ccc(F)cc4)c3C2)ccc1F ; output its category top range

Input CC1Cn2ncc(-c3ccc(F)cc3F)c2CN1C(=O)Nc1ccnc(C(F)F)c1 (stereo not shown) ; output its category bottom range
